- assay_overview: solubility L in liquid crystal mixture
- Type: physicochemical
- measurement_setup: 1 week stirring, liquid crystal mixture ZLI 1840
result_type: Solubility L (at room temp.) (%)

Illustrative cases are given below, each with its answer.
Fill in the blank: the reported Solubility L (at room temp.) of CCCCc1nnc(-c2ccc(N=Nc3cc(C)c(N=Nc4ccc(OCc5ccc(C6CCC(CC)CC6)cc5)cc4C)cc3C)cc2)o1 (stereo not drawn) [Example 1] is ____.
1.6

Fill in the blank: the reported Solubility L (at room temp.) of CCCCc1nnc(-c2ccc(N=Nc3cc(C)c(N=Nc4ccc(N(C)CCCC)cc4)cc3C)cc2)o1 [Example 5] is ____.
1.4

Fill in the blank: the reported Solubility L (at room temp.) of CCCCSc1nnc(-c2ccc(N=Nc3ccc(N=Nc4ccc(N(C)C)cc4)c4ccccc34)cc2)s1 [Example 8] is ____.
1.3

1: CCOC(=O)c1sc(-c2ccc(N=Nc3ccc(N=Nc4ccc(N(C)C)cc4)c4ccccc34)cc2)nc1C [Example 7]
2: CCCCSc1nnc(-c2ccc(N=Nc3ccc(N=Nc4ccc(N(C)CCCC)cc4)c4ccccc34)cc2)s1 [Example 9]
When their Solubility L (at room temp.) values are compared, which is larger, 1 or 2 ? Give the label of your selection.
1

====

- assay_overview: degree of order S in liquid crystal mixture
- Assay type: physicochemical
- measurement_setup: liquid crystal mixture ZLI 2452
result_type: Degree of order S (at room temp.)

Fill in the blank: the reported Degree of order S (at room temp.) of CCCCCCCC(C)Sc1nnc(-c2ccc(N=Nc3ccc(N=Nc4ccc(OCc5ccc(C6CCC(CCCC)CC6)cc5)cc4C)c4ccccc34)cc2)s1 (stereo not shown) is ____.
0.84

Fill in the blank: the reported Degree of order S (at room temp.) of CCCCC(CC)CSc1nnc(-c2ccc(N=Nc3ccc(N=Nc4ccc(N(C)CCCC)cc4)c4ccccc34)cc2)s1 (stereo not shown) is ____.
0.8

Fill in the blank: the reported Degree of order S (at room temp.) of CCCCCCCC(C)Sc1nnc(-c2ccc(N=Nc3ccc(N=Nc4ccc(N(C)CCCC)cc4)c4ccccc34)cc2)s1 (stereo not shown) is ____.
0.81

Fill in the blank: the reported Degree of order S (at room temp.) of CCCCC1CCC(c2ccc(COc3ccc(N=Nc4ccc(N=Nc5ccc(-c6nnc(SCC(CC)CCCC)s6)cc5)c5ccccc45)c(C)c3)cc2)CC1 (stereo not shown) is ____.
0.82

====

The entries below come with measured Solubility L (at room temp.) values attached.
- assay_overview: solubility L in liquid crystal mixture
- Format: physicochemical
- measurement_setup: 1 week stirring, liquid crystal mixture ZLI 1957/5

Illustrative cases are given below, each with its answer.
Fill in the blank: the reported Solubility L (at room temp.) of CCCCC(CC)c1nnc(-c2ccc(N=Nc3ccc(N=Nc4ccc(N(C)CCCC)cc4)c4ccccc34)cc2)o1 (stereo not drawn) is ____.
> 5%

Fill in the blank: the reported Solubility L (at room temp.) of CCCCCCCC(C)Sc1nnc(-c2ccc(N=Nc3ccc(N=Nc4ccc(OCc5ccc(C6CCC(CCCC)CC6)cc5)cc4C)c4ccccc34)cc2)s1 (stereo not drawn) is ____.
> 5%

Field: next compound
Fill in the blank: the reported Solubility L (at room temp.) of CCCCC(CC)c1nnc(-c2ccc(N=Nc3cc(C)c(N=Nc4ccc(N(C)CCCC)cc4)cc3C)cc2)o1 (stereo not drawn) is ____.
> 5%
